Origin of the recorded values: ChEMBL document CHEMBL1148842

# system_under_test: Prostaglandin E2 receptor EP1 subtype (Homo sapiens)
# measurement_protocol: Displacement of [3H]PGE2 from human recombinant EP1 receptor expressed in CHO cells
# Type: cell-based
pIC50: −log10 of the molar value.
measured_metric: pIC50

Cc1ccc(-c2ccccc2OCc2ccccc2)n1-c1cccc(C(=O)NS(=O)(=O)c2ccccc2)c1: 8.60

1: Cc1noc(C)c1S(=O)(=O)NC(=O)c1cccc(-n2c(C)ccc2-c2ccccc2OCc2ccccc2)c1
2: CC(=O)Nc1cccc(-n2c(C)ccc2-c2cc(Cl)ccc2OCc2ccccc2)c1
3: Cc1nnc(-c2cccc(-n3c(C)ccc3-c3cc(Br)ccc3OCc3ccc(F)cc3F)c2)o1
Which order do these items take when sorted by rising pIC50? List them. Rank them, then answer with their labels in that order.
2, 3, 1
(2: 7.20, 3: 7.40, 1: 8.30)

---

# system_under_test: Prostaglandin E2 receptor EP1 subtype (Homo sapiens)
# Sequence (P34995 whole entry): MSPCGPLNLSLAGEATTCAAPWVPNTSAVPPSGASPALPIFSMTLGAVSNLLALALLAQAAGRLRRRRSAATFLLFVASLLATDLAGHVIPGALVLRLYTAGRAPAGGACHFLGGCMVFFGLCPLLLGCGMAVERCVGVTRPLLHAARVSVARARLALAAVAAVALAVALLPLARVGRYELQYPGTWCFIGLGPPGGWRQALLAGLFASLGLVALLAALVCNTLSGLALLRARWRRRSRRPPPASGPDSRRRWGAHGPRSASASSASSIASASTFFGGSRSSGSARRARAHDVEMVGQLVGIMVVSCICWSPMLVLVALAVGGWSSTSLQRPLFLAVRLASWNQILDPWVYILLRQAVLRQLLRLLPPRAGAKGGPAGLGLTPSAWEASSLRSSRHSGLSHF
# measurement_protocol: Displacement of [3H]PGE2 from human recombinant EP1 receptor expressed in CHO cells
measured_metric: IC50 (nM)

Cc1ccc(-c2cc(Cl)ccc2OCc2ccccc2)n1-c1cccc(S(=O)(=O)NC(=O)c2ccccc2)c1: 79.4
Cc1ccc(-c2cc(Cl)ccc2OCc2ccccc2)n1-c1cccc(C(=O)NCc2cccnc2)c1: 63.1
Cc1ccc(-c2cc(Cl)ccc2OCc2ccccc2)n1-c1ccc(S(=O)(=O)NC(=O)c2ccccc2)cc1: 7.94

1: Cc1ccc(-c2cc(Br)ccc2OCc2ccc(F)cc2F)n1-c1ccc(C(N)=O)cc1
2: Cc1ccc(-c2cc(Cl)ccc2OCc2ccccc2)n1-c1cccc(C(=O)N[C@@H](C)c2ccccc2)c1
Between 1 and 2 , whose recorded IC50 is greater? Answer format: the label of the selected item.
2
(2: 316 nM, 1: 7.94 nM)

---

# system_under_test: UniProt P34995
# measurement_protocol: Displacement of [3H]PGE2 from human recombinant EP1 receptor expressed in CHO cells
# Type: cell-based
pIC50: −log10 of the molar value.
measured_metric: pIC50

Cc1ccc(-c2cc(Cl)ccc2OCc2ccccc2)n1-c1ccc(C(=O)N[C@H](C)c2ccccc2)cc1: 8.80
Cc1ccc(-c2cc(Br)ccc2OCc2ccc(F)cc2F)n1-c1cccc(-c2ncccn2)c1: 6.90
Cc1ccc(-c2cc(Br)ccc2OCc2ccccc2)n1-c1cccc(S(C)(=O)=O)c1: 6.70

I: Cc1ccc(-c2ccccc2OCc2ccc(F)cc2F)n1-c1cccc(C(N)=O)c1
II: Cc1nc(-c2cccc(-n3c(C)ccc3-c3cc(Br)ccc3OCc3ccc(F)cc3F)c2)no1
III: Cc1ccc(-c2cc(Br)ccc2OCc2ccc(F)cc2F)n1-c1ccc(C(=O)NC(C)(C)C)cc1
IV: Cc1ccc(-c2cc(Cl)ccc2OCc2ccccc2)n1-c1ccc2nn[nH]c2c1
V: Cc1ccc(-c2cc(Cl)ccc2OCc2ccccc2)n1-c1cccc(C(=O)NCc2ccncc2)c1
# rank by pIC50, ascending (min first) Returns: the labels listed in the requested order.
I, II, V, IV, III

---

# system_under_test: Prostaglandin E2 receptor EP1 subtype (Homo sapiens)
# measurement_protocol: Displacement of [3H]PGE2 from human recombinant EP1 receptor expressed in CHO cells
pIC50: −log10 of the molar value.
measured_metric: pIC50

Cc1ccc(-c2cc(Br)ccc2OCc2ccccc2)n1-c1ccc(S(C)(=O)=O)cc1: 7.50
Cc1ccc(-c2cc(Cl)ccc2OCc2ccccc2)n1-c1ccc(C(=O)NCc2ccncc2)cc1: 7.20
Cc1ccc(-c2cc(Br)ccc2OCc2ccc(F)cc2F)n1-c1cccc(C(O)(C(F)(F)F)C(F)(F)F)c1: 7.60

A: Cc1ccc(-c2ccccc2OCc2ccccc2)n1-c1ccc(S(C)(=O)=O)cc1
B: Cc1ccc(-c2cc(Cl)ccc2OCc2ccccc2)n1-c1cccc(C(N)=O)c1
Input pair: A , B . Output: entry with lower pIC50. Could you answer with the label of the item you picked?
A
(A: 6.30, B: 7.20)
